testedSystem: ATR-interacting protein/Serine/threonine-protein kinase ATR (Homo sapiens, UniProt Q13535)
Sequence (Q8WXE1 whole entry): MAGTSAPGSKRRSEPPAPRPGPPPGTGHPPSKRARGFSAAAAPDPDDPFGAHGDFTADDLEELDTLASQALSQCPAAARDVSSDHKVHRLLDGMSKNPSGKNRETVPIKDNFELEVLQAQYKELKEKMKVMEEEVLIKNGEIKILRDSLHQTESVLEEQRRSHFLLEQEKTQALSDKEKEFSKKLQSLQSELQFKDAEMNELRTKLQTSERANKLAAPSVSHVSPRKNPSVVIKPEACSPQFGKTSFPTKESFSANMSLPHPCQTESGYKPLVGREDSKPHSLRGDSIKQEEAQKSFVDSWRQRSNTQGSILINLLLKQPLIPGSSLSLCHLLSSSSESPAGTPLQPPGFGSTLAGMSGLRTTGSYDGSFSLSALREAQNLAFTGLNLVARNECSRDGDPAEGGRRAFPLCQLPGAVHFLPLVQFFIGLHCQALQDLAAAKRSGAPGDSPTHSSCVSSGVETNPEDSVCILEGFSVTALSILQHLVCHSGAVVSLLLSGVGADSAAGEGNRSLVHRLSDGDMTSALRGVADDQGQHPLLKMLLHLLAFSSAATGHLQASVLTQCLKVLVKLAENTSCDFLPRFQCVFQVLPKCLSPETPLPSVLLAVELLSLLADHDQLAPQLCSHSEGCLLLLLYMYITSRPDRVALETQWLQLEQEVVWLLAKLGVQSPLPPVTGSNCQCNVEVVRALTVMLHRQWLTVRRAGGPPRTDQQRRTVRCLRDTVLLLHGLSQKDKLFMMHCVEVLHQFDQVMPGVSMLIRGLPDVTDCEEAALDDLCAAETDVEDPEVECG
Sequence (Q13535 whole entry): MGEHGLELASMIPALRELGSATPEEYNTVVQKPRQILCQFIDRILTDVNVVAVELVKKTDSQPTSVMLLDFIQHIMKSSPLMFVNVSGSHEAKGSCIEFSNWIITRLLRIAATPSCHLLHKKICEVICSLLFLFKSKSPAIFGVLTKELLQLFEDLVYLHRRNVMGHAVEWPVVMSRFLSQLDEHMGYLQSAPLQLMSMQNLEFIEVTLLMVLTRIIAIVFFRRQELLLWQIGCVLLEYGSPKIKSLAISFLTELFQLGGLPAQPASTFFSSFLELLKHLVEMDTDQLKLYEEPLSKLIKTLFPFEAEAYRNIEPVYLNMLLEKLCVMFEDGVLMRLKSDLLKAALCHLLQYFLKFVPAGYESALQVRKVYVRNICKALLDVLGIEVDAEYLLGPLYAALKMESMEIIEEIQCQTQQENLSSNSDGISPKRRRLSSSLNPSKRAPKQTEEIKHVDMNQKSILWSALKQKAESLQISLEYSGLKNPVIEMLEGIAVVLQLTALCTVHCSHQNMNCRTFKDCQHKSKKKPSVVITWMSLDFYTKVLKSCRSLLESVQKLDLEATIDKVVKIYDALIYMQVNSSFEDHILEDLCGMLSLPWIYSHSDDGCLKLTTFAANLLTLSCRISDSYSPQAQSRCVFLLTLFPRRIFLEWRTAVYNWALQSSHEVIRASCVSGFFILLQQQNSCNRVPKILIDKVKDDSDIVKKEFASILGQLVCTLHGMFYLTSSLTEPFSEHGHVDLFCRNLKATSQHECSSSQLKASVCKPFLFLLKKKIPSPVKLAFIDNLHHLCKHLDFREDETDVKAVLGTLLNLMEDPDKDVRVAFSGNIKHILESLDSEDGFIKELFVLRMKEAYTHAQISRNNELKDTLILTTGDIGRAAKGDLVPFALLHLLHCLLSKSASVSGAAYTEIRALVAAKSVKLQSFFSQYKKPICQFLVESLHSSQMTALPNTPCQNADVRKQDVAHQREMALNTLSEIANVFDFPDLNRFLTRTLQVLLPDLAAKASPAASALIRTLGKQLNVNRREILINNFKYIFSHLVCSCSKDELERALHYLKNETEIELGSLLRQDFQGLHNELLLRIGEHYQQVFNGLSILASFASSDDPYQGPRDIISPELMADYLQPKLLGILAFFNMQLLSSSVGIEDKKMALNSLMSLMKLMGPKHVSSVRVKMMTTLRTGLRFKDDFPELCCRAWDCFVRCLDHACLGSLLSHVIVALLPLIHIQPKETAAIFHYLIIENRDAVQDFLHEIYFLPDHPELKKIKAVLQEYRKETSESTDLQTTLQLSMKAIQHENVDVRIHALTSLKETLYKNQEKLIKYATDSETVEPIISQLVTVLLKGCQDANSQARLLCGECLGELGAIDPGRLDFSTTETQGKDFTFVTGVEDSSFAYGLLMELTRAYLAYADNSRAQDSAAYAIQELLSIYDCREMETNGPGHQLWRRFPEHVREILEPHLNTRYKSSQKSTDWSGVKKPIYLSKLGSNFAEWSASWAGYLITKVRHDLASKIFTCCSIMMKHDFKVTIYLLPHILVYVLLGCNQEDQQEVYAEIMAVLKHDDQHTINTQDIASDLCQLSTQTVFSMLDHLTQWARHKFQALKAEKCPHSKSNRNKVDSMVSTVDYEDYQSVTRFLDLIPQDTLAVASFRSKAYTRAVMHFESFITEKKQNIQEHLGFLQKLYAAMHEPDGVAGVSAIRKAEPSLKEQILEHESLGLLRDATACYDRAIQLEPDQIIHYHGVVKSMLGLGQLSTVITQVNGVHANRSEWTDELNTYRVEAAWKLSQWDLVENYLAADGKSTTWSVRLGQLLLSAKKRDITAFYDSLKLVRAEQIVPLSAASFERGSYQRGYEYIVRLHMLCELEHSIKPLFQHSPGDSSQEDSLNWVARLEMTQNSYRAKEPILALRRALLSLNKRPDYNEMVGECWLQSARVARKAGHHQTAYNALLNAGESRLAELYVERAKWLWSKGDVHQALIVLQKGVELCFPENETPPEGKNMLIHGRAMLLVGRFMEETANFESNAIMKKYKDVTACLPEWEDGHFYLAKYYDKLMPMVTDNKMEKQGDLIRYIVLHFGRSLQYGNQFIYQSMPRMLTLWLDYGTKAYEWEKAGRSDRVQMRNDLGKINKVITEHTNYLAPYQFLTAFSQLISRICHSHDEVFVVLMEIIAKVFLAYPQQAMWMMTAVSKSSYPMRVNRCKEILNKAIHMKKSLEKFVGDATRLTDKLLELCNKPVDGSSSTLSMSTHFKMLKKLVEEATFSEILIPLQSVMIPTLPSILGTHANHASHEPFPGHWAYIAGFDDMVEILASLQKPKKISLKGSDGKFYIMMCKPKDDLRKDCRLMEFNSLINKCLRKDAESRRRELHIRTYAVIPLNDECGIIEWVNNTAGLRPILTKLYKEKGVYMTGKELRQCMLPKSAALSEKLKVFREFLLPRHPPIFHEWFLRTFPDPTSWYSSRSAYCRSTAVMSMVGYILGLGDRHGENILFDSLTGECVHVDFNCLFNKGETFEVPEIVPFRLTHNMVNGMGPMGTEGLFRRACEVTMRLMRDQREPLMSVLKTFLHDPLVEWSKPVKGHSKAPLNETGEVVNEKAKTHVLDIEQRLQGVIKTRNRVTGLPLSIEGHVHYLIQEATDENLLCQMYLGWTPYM
measureName: pIC50
Interpret pIC50 as the negative base-10 log of the concentration measured in mol/L.

pIC50 measured on C[C@@H]1COCCN1c1cc(C2CCS(=O)(=O)CC2)c2c(n1)c(-c1ccn[nH]1)nn2C [US12371430, Compound 82] = 9.10
